Data origin: patent US4206215A

tested on: E. coli 100/B22; assay: In vitro antibacterial activity, MIC (modified Autotiter method); format: cell-based, Escherichia coli; conditions: Escherichia coli, 100/B22, 20 h, read-out: MIC E. coli 100/B22, 18-20 hours at 37° C.
# note: exactly 1 µg/mL is not below, so it is rule not met; use rule met for MIC strictly under it

[
  {
    "molecule": "Nc1cc[n+](CCCCCCCCCC[n+]2ccc(N)cc2)cc1 [II, reference compound]",
    "target_or_system": "E. coli 100/B22",
    "class_name": "rule not met"
  },
  {
    "molecule": "CCCCCCCNc1cc[n+](CCCCCCCCCC[n+]2ccc(NCCCCCCC)cc2)cc1",
    "target_or_system": "E. coli 100/B22",
    "class_name": "rule met"
  },
  {
    "molecule": "CCCCCCCNc1cc[n+](CCCCCCCCC[n+]2ccc(NCCCCCCC)cc2)cc1",
    "target_or_system": "E. coli 100/B22",
    "class_name": "rule not met"
  },
  {
    "molecule": "CCCCCCCCCNc1cc[n+](CCCCCCCC[n+]2ccc(NCCCCCCCCC)cc2)cc1 [Example 29C]",
    "target_or_system": "E. coli 100/B22",
    "class_name": "rule not met"
  },
  {
    "molecule": "CCCCC(CC)CNc1cc[n+](CCCCCCCCCC[n+]2ccc(NCC(CC)CCCC)cc2)cc1 (centres unmarked)",
    "target_or_system": "E. coli 100/B22",
    "class_name": "rule met"
  }
]

Q: For CCCCC(CC)CNc1cc[n+](CCCCCCCC[n+]2ccc(NCC(CC)CCCC)cc2)cc1 (centres unmarked) , is the recorded MIC below the cut-off of 1 µg/mL?
Ans: rule not met

Q: Quick check: MIC of `CCCCCCNc1cc[n+](CCCCCCCCCCCCCC[n+]2ccc(NCCCCCC)cc2)cc1` under 1 µg/mL?
Ans: rule met
